recorded endpoint: melting point

[
  {
    "compound": "Cc1nc2c(N)nc3ccccc3c2n1CCCOCCCc1ccccc1",
    "result": "145 to 146 °C"
  },
  {
    "compound": "O=S(=O)(Cl)CCCCCc1ccc(OCc2ccccc2)cc1",
    "result": "58 to 60 °C"
  },
  {
    "compound": "COc1ccc(N2CCOC(c3ccc(C(F)(F)F)cc3)C2)c(-c2ccc(N(C)C)cc2)n1 (centres undefined)",
    "result": "160 to 161 °C"
  },
  {
    "compound": "CSC(=C(N)c1ccc2oc(C)cc2c1)S(C)=O (centres undefined)",
    "result": "185 to 186 °C"
  },
  {
    "compound": "N#Cc1cc(F)cc(C#N)c1",
    "result": "98 to 100 °C"
  },
  {
    "compound": "CSCC[C@H](NC(=O)[C@@H]1CCC(=O)N1)C(=O)N[C@@H](C)C(=O)N[C@H](C(=O)N[C@@H](CCCCN)C(=O)O)C(C)C",
    "result": "238 to 242 °C"
  },
  {
    "compound": "CC(=O)SCC(Cc1ccc(F)cc1F)C(=O)Nc1cccc(C(=O)O)c1 (centres undefined)",
    "result": "164 to 166 °C"
  },
  {
    "compound": "CCOC(=O)c1nc(Nc2ccccc2)sc1-c1ccncc1",
    "result": "167 to 169 °C"
  },
  {
    "compound": "O=C(c1ccc(F)cc1)C1CCN(CCN2c3cccc4cccc(c34)S2(=O)=O)CC1",
    "result": "145 °C"
  },
  {
    "compound": "CCOC(=O)C1=C(C)NC(C)=C(C(=O)OCC)C1c1cccc(Br)c1",
    "result": "125 to 126 °C"
  },
  {
    "compound": "COc1ccc(Br)c(C(=O)N2CCN(S(=O)(=O)c3ccc(Br)cc3)CC2)c1",
    "result": "180 °C"
  },
  {
    "compound": "OCc1ccc(-c2ccc(-c3ccsc3)s2)s1",
    "result": "158 to 160 °C"
  },
  {
    "compound": "CSc1nc(C)c(CCCl)c(=O)n1C",
    "result": "135 to 137 °C"
  },
  {
    "compound": "CC(C)(C)OC(=O)N1CCN(c2ccnc3sc(C(N)=O)c(N)c23)CC1",
    "result": "198 to 203 °C"
  }
]

====

Entries annotated with measured melting point

[
  {
    "compound": "CC(C)(C)OC(=O)Nc1cc(Cl)c(Cl)c(Cl)c1",
    "melting point": "120 °C"
  },
  {
    "compound": "Cc1nc(N2CCN(CC3CC3(F)F)C2=O)sc1-c1cc[nH]n1 (stereo unspecified)",
    "melting point": "227 to 230 °C"
  },
  {
    "compound": "CC(C)(C)c1ccc2c(c1)c(Sc1ccccc1)c(CC(=O)O)n2Cc1ccc(Cl)cc1",
    "melting point": "148 to 150 °C"
  },
  {
    "compound": "COCCOC(=O)Nc1cccc(C)c1COc1cccn2c(C)c(C)nc12",
    "melting point": "107 to 108 °C"
  },
  {
    "compound": "CC(C)(C)OC(=O)NCc1cc(-c2cccnc2)no1",
    "melting point": "67 to 69 °C"
  },
  {
    "compound": "FC(F)c1cn(-c2c(Cl)cc(C(F)(F)F)cc2Cl)nc1C(F)(F)F",
    "melting point": "88 to 90 °C"
  },
  {
    "compound": "COc1nc(OC)nc(OC(=O)c2cccc3cc(O)ccc23)n1",
    "melting point": "166 to 168 °C"
  },
  {
    "compound": "COC(=O)NNC(=S)Cc1cccc(C(F)(F)F)c1",
    "melting point": "131 to 132 °C"
  },
  {
    "compound": "O=C(NCc1cccc2ccccc12)NC1CCN(S(=O)(=O)c2ccccc2C(F)(F)F)C1 (stereo unspecified)",
    "melting point": "117 to 119 °C"
  },
  {
    "compound": "O=Cc1cc(O)c(O)cc1[N+](=O)[O-]",
    "melting point": "201 °C"
  },
  {
    "compound": "CC12CCC(C1)C1(C)Oc3ccc(CCOc4ccc(C(=O)O)c(O)c4)cc3C21C (stereo unspecified)",
    "melting point": "212 to 214 °C"
  },
  {
    "compound": "CC(C)(C)C1=CC(O)(C(F)(F)F)C=C(C(C)(C)C)C1=O",
    "melting point": "93 to 94 °C"
  },
  {
    "compound": "O=C(O)Cc1nn(Cc2nc3cc(Br)ccc3s2)c(=O)c2ccccc12",
    "melting point": "214 °C"
  },
  {
    "compound": "Cn1cncc1C(O)(c1ccoc1)c1ccc2c(c1)c(-c1cccc(Cl)c1)cc(=O)n2C (stereo unspecified)",
    "melting point": "248 °C"
  },
  {
    "compound": "CN(CN1C(=O)c2ccccc2C1=O)c1c(S(=O)C(F)(F)F)c(C#N)nn1-c1c(Cl)cc(C(F)(F)F)cc1Cl (stereo unspecified)",
    "melting point": "163 °C"
  },
  {
    "compound": "O=C(Nc1cccc(-c2ccccc2)c1)Nc1ccccc1CCO",
    "melting point": "196 to 198 °C"
  },
  {
    "compound": "CCCc1nn(-c2ccc(C(F)(F)F)cn2)cc1CCCCOc1c(CC(=O)O)cccc1OC",
    "melting point": "111 to 112 °C"
  },
  {
    "compound": "COCCc1nc2c(N)nc3cc(-c4cccc(CO)c4)ccc3c2n1CC(C)(C)O",
    "melting point": "212 to 213 °C"
  },
  {
    "compound": "CC(=O)c1c(C)c2cnc(Nc3ccc(N4CCOCC4)nc3)nc2n(C2CCCC2)c1=O",
    "melting point": "224 to 226 °C"
  },
  {
    "compound": "CCOc1ccc(Cn2cnc3c(-c4ccco4)ncnc32)cc1",
    "melting point": "165 to 166 °C"
  },
  {
    "compound": "CCOC(C)(OCC)C(=O)c1c[nH]c2ncc(-c3cc(OC)c(OC)c(OC)c3)nc12",
    "melting point": "198 to 201 °C"
  },
  {
    "compound": "CCc1nn(C2CCCC2)c2cc(C(=O)Nc3c(Cl)ncnc3Cl)ccc12",
    "melting point": "171 to 172 °C"
  },
  {
    "compound": "Cc1ccc2nc3n(c(=O)c2c1)-c1ccc(F)cc1C3=O",
    "melting point": "300 to 301 °C"
  },
  {
    "compound": "Cc1ccc(C2Sc3cc(C)ccc3NC(=O)C2=O)cc1 (stereo unspecified)",
    "melting point": "142 to 144 °C"
  },
  {
    "compound": "O=C1c2cccc(Sc3ccccc3)c2C(=O)c2cccc(Nc3ccc([N+](=O)[O-])cc3)c21",
    "melting point": "242 to 244 °C"
  },
  {
    "compound": "Cc1cc2c(c(C(C)(C)C)c1)OC(=O)C2O (stereo unspecified)",
    "melting point": "152 to 160 °C"
  }
]
